procedure_summary: Solubility of the acid addition salt
Format: physicochemical
assay_setup: pH 4.6, aqueous buffer; buffer formed from acetic acid and sodium acetate, solution pH approximately 4.6
Where a name gives a salt, the structure may show the parent alone.

compound	solubility
O=C(NC1CCNCC1)c1n[nH]cc1NC(=O)c1c(Cl)cccc1Cl [methanesulphonic acid salt, methanesulphonate]	~35 mg/mL
